system: OVCAR-8; test: NCI tumour cell line growth inhibition, 48 h
The source made the active and inactive calls. No stated cut-off is given here; in the data, active = GI50 up to about 1.1 µM and inactive = higher.
// allowed return values: label 1 = active, label 0 = inactive

Task: Outcome logged for C/C=C/C/C=C/CCC(=O)C1OC1C(N)=O (configuration not stated) in this assay:
Output: label 0

Task: Outcome logged for CC(=O)O[C@H]1C(=O)[C@@]2(C)[C@H]([C@H](OC(=O)c3ccccc3)[C@]3(O)C[C@H](OC(=O)[C@H](O)[C@@H](NC(=O)c4ccccc4)c4cccc(N(C)C)c4)C(C)=C1C3(C)C)[C@]1(OC(C)=O)CO[C@@H]1C[C@@H]2O in this assay:
Output: label 1

Task: Outcome logged for Cc1cc[n+]2c(c1)-c1cc(C)cc[n+]1CC2 in this assay:
Output: label 0

Task: Outcome logged for O=C1C[C@H]2[C@H](c3ccc(Br)cc3)[C@H]3C(=O)c4ccccc4NC(=O)[C@@H]3[C@@]2(O)c2ccccc2N1 in this assay:
Output: label 0

Task: Outcome logged for CC(C)OC(=O)c1ccc(CCc2cc(O)c(Br)cc2O)cc1 in this assay:
Output: label 0

Task: Outcome logged for C[C@H]1[C@H](C)CC[C@]2(C)CC[C@]3(C)C(=C[C@@H](O)[C@@H]4[C@@]5(C)[C@H](O)[C@@H](O)[C@H](O)C(C)(C)[C@@H]5CC[C@]43C)[C@H]12 in this assay:
Output: label 0

Task: Outcome logged for NNC1=N/C(=C\c2ccco2)C(=O)N1 in this assay:
Output: label 0

Task: Outcome logged for CC(C)OC(=O)NCCn1cc(-c2ccccc2)nn1 in this assay:
Output: label 0

Task: Outcome logged for Nc1ccc(N)c2c1C(=O)c1c(N)ccc(N)c1C2=O in this assay:
Output: label 0

Task: Outcome logged for CS(=O)(=O)OCCn1cnc2nc(NC(=O)c3ccccc3)[nH]c(=O)c21 in this assay:
Output: label 0

Task: Outcome logged for CCOC(=O)C1(Br)C(c2ccccc2)NC(=O)N(C2OC(COC(=O)c3ccccc3)C(OC(=O)c3ccccc3)C2OC(=O)c2ccccc2)C1(C)Br (configuration not stated) in this assay:
Output: label 0

Task: Outcome logged for Nc1ccc2c(c1)C(=O)c1c(F)cccc1-2 in this assay:
Output: label 0

Task: Outcome logged for COC(=O)C(=O)C1CCCCC(C2=NC3NN=C(N)N3C2=O)C1=O (configuration not stated) in this assay:
Output: label 0

Task: Outcome logged for Cc1nn(C)cc1P(=S)(c1ccccc1)c1ccccc1 in this assay:
Output: label 0

Task: Outcome logged for CCCCCCCCCCCCCC(=O)OC1CC(=O)OC1CO (configuration not stated) in this assay:
Output: label 0

Task: Outcome logged for COc1c(OC(C)=O)cc2c(OC(C)=O)c1CC(C)CC(OC)C(O)C(C)/C=C(\C)C(OC(N)=O)C(OC)/C=C\C=C(/C)C(=O)N2 (configuration not stated) in this assay:
Output: label 0

Task: Outcome logged for CCOC(=O)C1CCCCc2sc(N)c(C#N)c21 (configuration not stated) in this assay:
Output: label 0

Task: Outcome logged for N/N=C(\N)Nc1cccc2ccccc12 in this assay:
Output: label 0

Task: Outcome logged for C=CC[C@H](C)CCC(=O)N1[C@H]2CC3CC[C@@]2(CS1(=O)=O)C3(C)C in this assay:
Output: label 0

Task: Outcome logged for NCCNCc1c2ccccc2c(CNCCN)c2ccccc12 in this assay:
Output: label 0

Task: Outcome logged for COc1c2c(cc3nc4ccccc4nc13)CCC(C(C)(C)O)C2 (configuration not stated) in this assay:
Output: label 0

Task: Outcome logged for CC1CC2(CC[C@@H]1O)OCCO2 (some centres not stated) in this assay:
Output: label 0

Task: Outcome logged for Brc1cccc(/C=C/CN2CCN(CCOC(c3ccccc3)c3ccccc3)CC2)c1 in this assay:
Output: label 0

Task: Outcome logged for COc1ccc(Oc2cnn(C(Br)(Br)C(C)=O)c(=O)c2Br)cc1 in this assay:
Output: label 0

Task: Outcome logged for COc1cccc(/N=C/c2cc(OC)c(OC)c(OC)c2)c1 in this assay:
Output: label 0

Task: Outcome logged for CN(C)/C=N/S(=O)(=O)c1nn2c(C=O)c(-c3ccc(-c4ccc([N+](=O)[O-])cc4)o3)nc2s1 in this assay:
Output: label 0

Task: Outcome logged for N#CC(C#N)=CNCCN1CCN(C=C(C#N)C#N)CC1 in this assay:
Output: label 0

Task: Outcome logged for COC(=O)[C@@](NC(=O)OCc1ccccc1)([C@H](C)O)C(F)(F)F in this assay:
Output: label 0

Task: Outcome logged for CC(=O)C1C(=O)C(=O)N(c2ccccc2N2C(=O)C(=O)C(C(C)=O)C2=O)C1=O (configuration not stated) in this assay:
Output: label 0

Task: Outcome logged for CCOC(=O)C(=O)Nc1cc(Cl)c(Cl)cc1Cl in this assay:
Output: label 0

Task: Outcome logged for COc1cc(C2c3cc4c(cc3[C@@H](OCCN(C)C)C3COC(=O)[C@H]23)OCO4)cc(OC)c1O (some centres not stated) in this assay:
Output: label 1

Task: Outcome logged for O=C(O)c1nc(-c2ccccn2)c(-c2ccccn2)nc1C(=O)O in this assay:
Output: label 0

Task: Outcome logged for CC1=NN(c2cccc(Cl)c2)C2(SCC(=O)N2c2nc3ccccc3s2)/C1=C\c1ccc(Cl)cc1 (configuration not stated) in this assay:
Output: label 0

Task: Outcome logged for CCSc1s/c(=N/c2ccc(/N=c3\sc(C)c(SC)s3)cc2)sc1-c1ccc(C)cc1 in this assay:
Output: label 0

Task: Outcome logged for COc1ccc(NC(=O)CC(=O)NN2C(=O)/C(=C/c3ccc(N(CCC#N)CCC#N)cc3C)N=C2/C=C\c2ccccc2)cc1 in this assay:
Output: label 0

Task: Outcome logged for O=C1Nc2ccccc2/C1=c1\[nH]c(=O)/c(=C\c2ccc(OCc3ccccc3)cn2)[nH]c1=O in this assay:
Output: label 0

Task: Outcome logged for Cc1cn(CCCCOC(=O)NC(CCCNC(=N)N)C(=O)O)c(=O)[nH]c1=O (configuration not stated) in this assay:
Output: label 0
